- Test system: MV4,11 cells
- Test summary: FLT3 assay using MV4,11 cells (cellular proliferation, MTS)
- Assay type: cell-based, human
- Measurement context: cell assay code CS0001
Observed property: Cell Assay: CS0001:IC50

Smiles input | Observed property | Endpoint result
CC(C)(C)c1cc(NC(=O)Nc2ccc(NC(=O)c3cn4nc(Cl)ccc4n3)cc2)no1 | Cell Assay: CS0001:IC50 | + + + +
CC(C)(C)c1cc(NC(=O)Nc2ccc(NC(=O)c3cn4c(n3)sc3ccccc34)cc2)no1 | Cell Assay: CS0001:IC50 | + + + +
CC(C)(C)c1cc(NC(=O)Nc2ccc(OCCN3CCSCC3)cc2)no1 | Cell Assay: CS0001:IC50 | + +
CC(C)(C)c1cc(NC(=O)Nc2ccc(NC(=O)c3nccc4ccccc34)cc2)no1 | Cell Assay: CS0001:IC50 | + + + +

Item CC(C)(C)c1cnc(CSc2cnc(NC(=O)Nc3ccon3)s2)o1 has what recorded Cell Assay: CS0001:IC50?
+ + +

---

- Target entity: FLT3 (Homo sapiens, UniProt P36888)
- Construct: FLT3(DKIN); made in house
- Test summary: Binding constant (Kd) measurement, phage-displayed kinase competition binding assay
- Measurement context: FLT3(DKIN) construct
Observed property: Binding Assay: FLT3(DKIN)

These recorded examples may help you get a feel for the data.
Compound | Endpoint result
CC(C)(C)c1cc(NC(=O)Nc2ccc(OCc3ccccc3-c3ccccc3)cc2)no1 | + + +
CC(C)(C)c1cc(NC(=O)Nc2ccc(NC(=O)c3cn4nc(Cl)ccc4n3)cc2)no1 | + + + +
Cc1cccnc1-c1noc(-c2ccc(NC(=O)Nc3cc(C(C)(C)C)on3)cc2)n1 | + + + +
Cc1ccc(COc2ccc(NC(=O)Nc3cc(C(C)(C)C)on3)cc2)cc1 | + + + +
CC(C)(C)c1cc(NC(=O)Nc2ccc(OCc3ccc(Cl)cc3)cc2)no1 | + + + +
Cn1nc(-c2ccccc2)c(C(=O)Nc2ccc(NC(=O)Nc3cc(C(C)(C)C)on3)cc2)c1Cl | + +

Item CC(C)(C)c1cc(NC(=O)Nc2ccc(OCC3CC3)cc2)no1 has what recorded Binding Assay: FLT3(DKIN)?
+ + + +

Item CC(C)(C)c1cc(NC(=O)Nc2ccccc2)no1 [Compound A2] has what recorded Binding Assay: FLT3(DKIN)?
+ + + +

Item O=C(c1cc2ccccc2[nH]1)c1cc2cc(O)ccc2[nH]1 has what recorded Binding Assay: FLT3(DKIN)?
+ + + +

---

- Test system: MV4,11 cells
- Test summary: FLT3 assay using MV4,11 cells (cellular proliferation, MTS)
- Type: cell-based, human
- Measurement context: cell assay code CS0001
Observed property: Cell Assay: CS0001:IC50

These recorded examples may help you get a feel for the data.
Smiles input | Observed property | Endpoint result
CC(C)c1nnsc1C(=O)Nc1ccc(NC(=O)Nc2cc(C(C)(C)C)on2)cc1 | Cell Assay: CS0001:IC50 | + +
COc1ccnc(Nc2ccc(C(=O)Nc3ccc(NC(=O)Nc4cc(C(C)(C)C)on4)cc3)cc2)n1 | Cell Assay: CS0001:IC50 | + + + +
COc1cc2nc(Cl)nc(Nc3ccc(NC(=O)Nc4cc(C(C)(C)C)on4)cc3)c2cc1OC | Cell Assay: CS0001:IC50 | + + + +
Cc1ccc2[nH]c(C(=O)Nc3ccc(NC(=O)Nc4cc(C(C)(C)C)on4)cc3)cc2c1 | Cell Assay: CS0001:IC50 | + + + +

Item CC(C)(C)c1cc(NC(=O)Nc2ccc(NC(=O)c3ccccc3O)cc2)no1 has what recorded Cell Assay: CS0001:IC50?
+ + +

Item CC(C)(C)c1cc(NC(=O)Nc2ccc(NC(=O)c3ccc4cccnc4n3)cc2)no1 has what recorded Cell Assay: CS0001:IC50?
+ + +

Item CC(C)(C)c1cc(NC(=O)Nc2ccc(OCCc3ccncc3)cc2)no1 has what recorded Cell Assay: CS0001:IC50?
+ + + +

Item Cc1nc(-c2cccnc2)sc1C(=O)Nc1ccc(NC(=O)Nc2cc(C(C)C)on2)cc1 has what recorded Cell Assay: CS0001:IC50?
+ + + +

---

- Target entity: FLT3 (Homo sapiens)
- Construct: FLT3(DKIN); made in house
- Test summary: Binding constant (Kd) measurement, phage-displayed kinase competition binding assay
- Measurement context: FLT3(DKIN) construct
Observed property: Binding Assay: FLT3(DKIN)

These recorded examples may help you get a feel for the data.
Smiles input | Endpoint result
CC(C)(C)c1cc(NC(=O)Nc2ccc(NC(=O)c3ccc4ccccc4n3)cc2)no1 | + + + +
CC(C)(C)c1cc(NC(=O)Nc2ccc(OCc3ccc4nonc4c3)cc2)no1 | + + + +
CC(C)(C)c1cc(NC(=O)Nc2ccc(NC(=O)c3cscn3)cc2)no1 | + + + +
O=C(Nc1ccc(OCc2ccccc2)cc1)Nc1cc(C2CC2)nn1-c1ccccc1 | + + +
CC(C)(C)c1cc(NC(=O)Nc2ccc(NC(=O)c3cccc(F)n3)cc2)no1 | + + + +
COc1cc(OC)nc(Nc2cccc(C(=O)Nc3ccc(NC(=O)Nc4cc(C(C)(C)C)on4)cc3)c2)n1 | + + + +
CC(C)(C)c1cc(NC(=O)Nc2ccc(NC(=O)c3cnc4ccccc4n3)cc2)no1 | + + +

Item Cc1cccnc1C(=O)Nc1ccc(NC(=O)Nc2cc(C(C)(C)C)on2)cc1 has what recorded Binding Assay: FLT3(DKIN)?
+ + + +

---

- Target entity: FLT3 (Homo sapiens, UniProt P36888)
- Construct: FLT3(DKIN); made in house
- Sequence (P36888 610-943 limits assumed): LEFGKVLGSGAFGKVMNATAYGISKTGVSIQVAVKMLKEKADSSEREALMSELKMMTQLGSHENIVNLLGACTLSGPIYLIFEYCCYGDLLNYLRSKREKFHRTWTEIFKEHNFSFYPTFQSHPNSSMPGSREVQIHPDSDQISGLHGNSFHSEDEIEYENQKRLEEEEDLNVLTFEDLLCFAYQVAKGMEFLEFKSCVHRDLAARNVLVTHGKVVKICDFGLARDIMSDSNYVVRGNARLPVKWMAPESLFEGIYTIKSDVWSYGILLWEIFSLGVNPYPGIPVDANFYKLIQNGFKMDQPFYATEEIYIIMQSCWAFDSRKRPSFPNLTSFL
- Test summary: Binding constant (Kd) measurement, phage-displayed kinase competition binding assay
- Measurement context: FLT3(DKIN) construct
Observed property: Binding Assay: FLT3(DKIN)

Smiles input | Endpoint result
CC(C)(C)c1cc(NC(=O)Nc2ccc(C(=O)O)cc2)no1 | + +
Cc1cc(C)c(C(=O)Nc2ccc(NC(=O)Nc3cc(C(C)(C)C)on3)cc2)c(C)c1 | + + +
CC(C)(C)c1cc(NC(=O)Nc2ccc(NC(=O)c3cc(N4CCOCC4)nc(N4CCOCC4)n3)cc2)no1 | + + + +
CC(C)(C)c1cc(NC(=O)Nc2ccc(-c3nc(-c4ccc(C(F)(F)F)cc4)no3)cc2)no1 | + + +
Cn1nc(C(C)(C)C)cc1C(=O)Nc1ccc(NC(=O)Nc2cc(C(C)(C)C)on2)cc1 | + + + +

Item CC(C)(C)c1cc(NC(=O)Nc2ccc(NC(=O)c3ccc4sccc4c3)cc2)no1 has what recorded Binding Assay: FLT3(DKIN)?
+ + + +

Item CC(C)(C)c1cc(NC(=O)Nc2ccc(NC(=O)c3cccc(Cl)n3)cc2)no1 has what recorded Binding Assay: FLT3(DKIN)?
+ + + +

Item CC(C)(C)c1cc(NC(=O)NN2CCCCC2)no1 has what recorded Binding Assay: FLT3(DKIN)?
+ + +

---

- System: MV4,11 cells
- Test summary: FLT3 assay using MV4,11 cells (cellular proliferation, MTS)
- Format: cell-based, human
- Measurement context: cell assay code CS0001
- Protocol: The ability of FLT3 kinase inhibitors to inhibit cellular proliferation was also examined. MV4:11 was a cell line derived from a patient with acute myelogenous leukemia. FLT3 Assay Using MV4,11 Cells MV4,11 cells were grown in an incubator @ 37° C. in 5% CO2 in Medium 2 (RPMI, 10% FBS, 4 mM glutamine, Penn/Strep). The cells were counted daily and the cell density was kept between 1e5 and 8e5 cells/ml. […] Day Two: The cells were counted and enough medium 3 was added to decrease density to 2e5 cells/ml. […]
Observed property: Cell Assay: CS0001:IC50

Smiles input | Target entity | Observed property | Endpoint result
CC(C)(C)c1cc(NC(=O)Nc2ccc(NC(=O)c3ccccn3)cc2)no1 | MV4,11 cells | Cell Assay: CS0001:IC50 | + + + +
CC(C)(C)c1cc(NC(=O)Nc2ccc(NC(=O)c3cnnc4ccccc34)cc2)no1 | MV4,11 cells | Cell Assay: CS0001:IC50 | + + + +
CC(C)(C)c1cc(NC(=O)Nc2ccc(OCc3ccccc3C(F)(F)F)cc2)no1 | MV4,11 cells | Cell Assay: CS0001:IC50 | + +
CC(C)(C)c1cc(NC(=O)Nc2ccncc2)no1 | MV4,11 cells | Cell Assay: CS0001:IC50 | + +
Cc1nccn1CCOc1ccc(NC(=O)Nc2cc(C(C)(C)C)on2)cc1 | MV4,11 cells | Cell Assay: CS0001:IC50 | + + +

Item CC(C)(C)c1cc(NC(=O)Nc2ccc(OCCN3CCOCC3)cc2)no1 has what recorded Cell Assay: CS0001:IC50?
+ +

Recorded values, source patent US20050267182A1.
